Catalogue of median fluorescence values
Target: T1, FZD3 cysteine-rich domain (CRD), MYC-tagged and GPI-anchored on CHO cells (human, UniProt Q9NPG1 24-150, GPI anchor)
T1 construct: domain: cysteine-rich domain (CRD); also called FZD3 CRD; CHO-myc-FZDGPI; not shown: MYC tag and GPI anchor signal
T1 sequence (looked up): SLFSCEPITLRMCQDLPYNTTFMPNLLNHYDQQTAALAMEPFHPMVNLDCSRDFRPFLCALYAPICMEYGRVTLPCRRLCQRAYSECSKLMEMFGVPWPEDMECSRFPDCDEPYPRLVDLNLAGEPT
Test: flow cytometry, CHO-CRD cells;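 further: flow cytometry of Fab binding to CHO cells overexpressing a Frizzled CRD, with binding defined as median fluorescence over twice that of CHO cells lacking any Frizzled CRD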

Find the recorded median fluorescence belonging to Fab-2936 (Fab, V domains shown, Fab; also called Fv-2936) VH: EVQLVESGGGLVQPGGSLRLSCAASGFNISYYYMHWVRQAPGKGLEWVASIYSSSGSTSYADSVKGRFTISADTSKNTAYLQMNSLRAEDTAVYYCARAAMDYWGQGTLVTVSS VL: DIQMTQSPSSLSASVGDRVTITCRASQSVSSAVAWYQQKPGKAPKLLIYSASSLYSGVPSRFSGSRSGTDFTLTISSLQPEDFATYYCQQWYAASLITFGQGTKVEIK and report it.
3

What value of median fluorescence has been reported for the following binder? Fab-2911 (Fab, V domains shown, Fab; also called Fv-2911) VH: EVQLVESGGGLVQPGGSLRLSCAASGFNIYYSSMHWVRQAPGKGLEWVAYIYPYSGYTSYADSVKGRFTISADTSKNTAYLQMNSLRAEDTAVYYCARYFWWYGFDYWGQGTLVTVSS VL: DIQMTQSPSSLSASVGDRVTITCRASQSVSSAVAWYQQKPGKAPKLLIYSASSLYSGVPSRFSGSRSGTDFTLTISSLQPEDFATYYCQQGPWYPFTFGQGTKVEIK
4.96

Quick one: median fluorescence for Fab-2925 (Fab, V domains shown, Fab; also called Fv-2925) VH: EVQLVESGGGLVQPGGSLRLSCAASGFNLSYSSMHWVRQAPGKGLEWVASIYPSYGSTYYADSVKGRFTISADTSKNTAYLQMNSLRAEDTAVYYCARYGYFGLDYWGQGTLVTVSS VL: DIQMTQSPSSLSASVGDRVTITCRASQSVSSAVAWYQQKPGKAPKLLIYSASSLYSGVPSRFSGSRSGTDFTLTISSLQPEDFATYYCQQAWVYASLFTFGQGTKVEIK ?
3.92
